# maps each entry to its Selectivity ratio (p38 IC50 / p38/MK2 IC50)
target: p38α/MK2 (Homo sapiens, UniProt P49137+Q16539); construct: purchased R & D systems (p38 alpha); Thermo (MK2) 5477-KS-010; PV3316; assay: Inhibition of p38α/MK2 enzyme activity (TR-FRET, ULight-CREBtide); format: biochemical; conditions: selectivity ratio p38 IC50 over p38/MK2 IC50
Sequence (Q16539 whole entry): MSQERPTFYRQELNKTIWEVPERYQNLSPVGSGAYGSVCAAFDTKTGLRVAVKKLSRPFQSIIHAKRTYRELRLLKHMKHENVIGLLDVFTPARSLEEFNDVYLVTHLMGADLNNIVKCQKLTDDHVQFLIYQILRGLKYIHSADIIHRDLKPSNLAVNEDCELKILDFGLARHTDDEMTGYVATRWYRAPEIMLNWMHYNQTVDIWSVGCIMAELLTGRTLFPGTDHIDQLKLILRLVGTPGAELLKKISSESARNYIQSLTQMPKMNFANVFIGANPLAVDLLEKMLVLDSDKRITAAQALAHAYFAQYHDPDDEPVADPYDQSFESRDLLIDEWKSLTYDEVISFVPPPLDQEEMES
Sequence (P49137 whole entry): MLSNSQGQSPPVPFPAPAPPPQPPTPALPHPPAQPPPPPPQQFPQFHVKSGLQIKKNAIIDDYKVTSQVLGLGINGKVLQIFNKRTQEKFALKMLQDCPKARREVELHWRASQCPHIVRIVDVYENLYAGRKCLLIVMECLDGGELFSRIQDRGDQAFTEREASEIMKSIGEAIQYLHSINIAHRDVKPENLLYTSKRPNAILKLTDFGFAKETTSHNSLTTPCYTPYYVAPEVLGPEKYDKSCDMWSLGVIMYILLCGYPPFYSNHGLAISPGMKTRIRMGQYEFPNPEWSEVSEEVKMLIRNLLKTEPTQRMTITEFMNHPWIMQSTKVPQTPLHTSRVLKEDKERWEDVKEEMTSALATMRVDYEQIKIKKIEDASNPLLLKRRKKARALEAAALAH
Reply with the value as a number alone.

Entry [2H]C([2H])(Oc1cc2n(c(=O)c1Cl)-c1cc(-c3ccnc(C(C)(C)O)n3)ncc1CCCC2)c1ncc(F)cc1F has what Selectivity ratio (p38 IC50 / p38/MK2 IC50)?
109

***
I would be grateful if you could share the reported Selectivity ratio (p38 IC50 / p38/MK2 IC50) for [2H]C([2H])(Oc1cc(C)n(-c2cc(-n3cccc(C(C)(C)NC(C)=O)c3=O)ncc2C)c(=O)c1Cl)c1ccc(F)cc1F .
138

What does the data say about its Selectivity ratio (p38 IC50 / p38/MK2 IC50)? Entry: [2H]C([2H])(Oc1cc2n(c(=O)c1Cl)-c1c(cnc(-c3ccnc(C(C)(C)O)n3)c1F)CCCC2)c1ncc(F)cc1F
164

---

Each entry below carries its recorded pIC50.
test system: p-Hsp27 in U937 cells; experiment: Inhibition of p-Hsp27 in LPS-stimulated U937 cells (ELISA); type: cell-based; conditions: Homo sapiens, U-937; PMA-differentiated U937, 10 ng/ml LPS 0.5 hours; read-out: U937 cell activity test p-HSP27 IC50
Worth noting: pIC50 values are minus log10 of concentrations stated in mol/L.

Give its pIC50 value. Item: [2H]C([2H])(Oc1cc(C)n(-c2cc(-n3cccc(C(C)(C)NC(C)=O)c3=O)ncc2C)c(=O)c1Cl)c1ccc(F)cc1F [Example 13-1]
9.25

More entries:
Can you share its pIC50? I mean this compound: [2H]C([2H])(Oc1cc2n(c(=O)c1Cl)-c1cc(-n3cc(F)c(C(C)(C)NC(C)=O)n3)ncc1CCCC2)c1ncc(F)cc1F [Example 3-1]
9.82

Entry [2H]C([2H])(Oc1cc2n(c(=O)c1Cl)-c1cc(-c3ccnc(C(C)(C)O)n3)ncc1CCCC2)c1ncc(F)cc1F [Example 1-1] : reported pIC50 = ?
9.77

Value lookup for pIC50; key = [2H]C([2H])(Oc1cc2n(c(=O)c1Cl)-c1cc(-n3ccc(C(C)(C)O)n3)ncc1CCCC2)c1ncc(F)cc1F [Example 2-1]
9.55

I am curious: what pIC50 value has been reported for [2H]C([2H])(Oc1cc2n(c(=O)c1Cl)-c1cc(-n3cccc(C(C)(C)O)c3=O)ncc1CCCC2)c1ncc(F)cc1F [Example 15-1] ?
9.49

---

Readings of IC50 for the listed compounds
target: p38α/MK2 (Homo sapiens, UniProt P49137+Q16539); construct: Thermo (MK2) 5477-KS-010; PV3316; assay: Inhibition of p38α/MK2 enzyme activity (TR-FRET, ULight-CREBtide); conditions: 0.06 nM p38a, 1.2 nM MK2, 25 μM ATP; read-out: p38/MK2 IC50
Please report the result as a number followed by the unit.

Find the recorded IC50 belonging to [2H]C([2H])(Oc1cc2n(c(=O)c1Cl)-c1c(cnc(-n3ccc(C(C)(C)O)n3)c1F)CCCC2)c1ncc(F)cc1F [Example 8-1] and report it.
0.25 nM

# get_value(readout='IC50', item= [2H]C([2H])(Oc1cc(C)n(-c2cc(-n3cccc(C(C)(C)NC(C)=O)c3=O)ncc2C)c(=O)c1Cl)c1ccc(F)cc1F [Example 13-1] )
0.12 nM

Field request: IC50 | item: [2H]C([2H])(Oc1cc2n(c(=O)c1Cl)-c1cc(-n3cc(F)c(C(C)(C)NC(C)=O)n3)ncc1CCCC2)c1ncc(F)cc1F [Example 3-1]
0.18 nM

Next:
Looking for the measured IC50 of [2H]C([2H])(Oc1cc2n(c(=O)c1Cl)-c1cc(-c3ccnc(C(C)(C)O)n3)ncc1CCCC2)c1ncc(F)cc1F [Example 1-1] , can you help?
0.71 nM

Could you tell me which IC50 is on file for [2H]C([2H])(Oc1cc2n(c(=O)c1Cl)-c1cc(-n3ccc(C(C)(C)O)n3)ncc1CCCC2)c1ncc(F)cc1F [Example 2-1] ?
0.42 nM
